Listed here are variants together with their documented aptazyme ON/OFF ratio.
B1: Pistol ribozyme (parent)
chain: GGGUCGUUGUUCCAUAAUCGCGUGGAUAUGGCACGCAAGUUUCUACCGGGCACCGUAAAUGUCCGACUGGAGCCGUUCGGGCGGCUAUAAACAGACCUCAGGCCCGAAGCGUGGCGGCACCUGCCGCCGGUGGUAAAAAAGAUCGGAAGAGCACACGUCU

- Variants of: B1
- protocol-notes: aptazyme ON/OFF ratio, guanine; higher = stronger switching; co-transcriptional cleavage with and without guanine
recorded-metric: aptazyme ON/OFF ratio

>  <alteration>
U7C U10A U11A C12U C13A

>  <meas-value>
1.28

$$$$
>  <alteration>
U7G U8G G9U U11A C12U C13U

>  <meas-value>
1.23

$$$$
>  <alteration>
U8A G9U U10G U11A C12U C13U

>  <meas-value>
1.12

$$$$
>  <alteration>
U7G U8A G9C U10G U11C C12U C13U

>  <meas-value>
1.04

$$$$
>  <alteration>
U7C U8A U10C C13U

>  <meas-value>
3.34

$$$$
>  <alteration>
U8G G9U U10G C12G C13A

>  <meas-value>
1.02

$$$$
>  <alteration>
G9U U10C U11G C12U

>  <meas-value>
2.12

$$$$
>  <alteration>
U7C U8C G9A U10A U11A C12A C13A

>  <meas-value>
1.2

$$$$
>  <alteration>
U7A U8G G9U U10C U11G

>  <meas-value>
1.71

$$$$
>  <alteration>
U10C U11A C12G C13A

>  <meas-value>
1.29

$$$$
>  <alteration>
U7C G9U U10C U11C C12A C13U

>  <meas-value>
1.01

$$$$
>  <alteration>
U8C U10A C12U

>  <meas-value>
1.1

$$$$
>  <alteration>
U7G U8A G9A U10G U11C C12U C13G

>  <meas-value>
1.12

$$$$
>  <alteration>
U7C U8G G9C U10A U11A C12G C13U

>  <meas-value>
1.17

$$$$
>  <alteration>
U7A U8G U11G C12G

>  <meas-value>
1.36

$$$$
>  <alteration>
U7G U8A G9C U10C U11C C12U C13U

>  <meas-value>
1.01

$$$$
>  <alteration>
U8C U11G C13A

>  <meas-value>
1.05

$$$$
>  <alteration>
U7A G9U U10A U11C C13A

>  <meas-value>
1.09

$$$$
>  <alteration>
U7C U8A G9C U10C C12A C13A

>  <meas-value>
1.05

$$$$
>  <alteration>
G9C U11A C12G C13A

>  <meas-value>
1.2

$$$$
>  <alteration>
U7G U8A G9A U10G U11G C12U

>  <meas-value>
1.48

$$$$
>  <alteration>
U7A U8A G9A U10C U11A C12U C13U

>  <meas-value>
1.03

$$$$
>  <alteration>
U8C G9A C12U C13A

>  <meas-value>
1.17

$$$$
>  <alteration>
U7A U8C G9A U10A U11C C13U

>  <meas-value>
1.04

$$$$
>  <alteration>
G9A U11G C12G C13A

>  <meas-value>
1.18

$$$$
>  <alteration>
U8C G9A U10G U11C C12U C13G

>  <meas-value>
1.15

$$$$
>  <alteration>
U8C G9C U10C U11G C12A C13A

>  <meas-value>
1.2

$$$$
>  <alteration>
U7A U8A U10G C12A C13U

>  <meas-value>
1.19

$$$$
>  <alteration>
U10G C13G

>  <meas-value>
1.32

$$$$
>  <alteration>
U7C G9U U10C U11G C12U C13U

>  <meas-value>
1.16

$$$$
>  <alteration>
U8A G9A U10A U11G C12U C13U

>  <meas-value>
1.4

$$$$
>  <alteration>
U7A U8C G9C U10G C13A

>  <meas-value>
1.1

$$$$
>  <alteration>
U8G U10A C13G

>  <meas-value>
1.12

$$$$
>  <alteration>
U7G G9C U10C C12G C13A

>  <meas-value>
1.31

$$$$
>  <alteration>
U8A G9C U10C U11G C13G

>  <meas-value>
1.05

$$$$
>  <alteration>
U7G U8A G9U U10A

>  <meas-value>
1.46

$$$$
>  <alteration>
U7G U8G G9C U10A U11C C12U C13U

>  <meas-value>
1.04

$$$$
>  <alteration>
U7G G9U U11C C12G C13U

>  <meas-value>
1.37

$$$$
>  <alteration>
U7G U8A G9A U10A U11C C12A

>  <meas-value>
1.12

$$$$
>  <alteration>
U7G G9U U10C U11C C12A C13U

>  <meas-value>
1.47

$$$$
>  <alteration>
G9A U10G U11A C12A C13G

>  <meas-value>
1.09

$$$$
>  <alteration>
U7G U8G G9C U10A U11A C12G C13G

>  <meas-value>
1.05

$$$$
>  <alteration>
U7A U8A G9A U11A C12G

>  <meas-value>
1.24

$$$$
>  <alteration>
U7G U8G G9C U10G U11C C12G

>  <meas-value>
1.18

$$$$
>  <alteration>
U7C U8C U10C U11A C12A

>  <meas-value>
1.31

$$$$
>  <alteration>
U8G G9A U10C U11A C12U C13A

>  <meas-value>
1.04

$$$$
>  <alteration>
G9A U10C U11G

>  <meas-value>
1.86

$$$$
>  <alteration>
U7G U8A G9A U11C C13U

>  <meas-value>
1.06

$$$$
>  <alteration>
U8G G9U U11C C12G C13U

>  <meas-value>
1.13

$$$$
>  <alteration>
U8A G9U U10C C12A

>  <meas-value>
1.04

$$$$
>  <alteration>
U8G G9A U10G U11C C12U C13A

>  <meas-value>
1.06

$$$$
>  <alteration>
U7C U8C U10G U11C C12G C13A

>  <meas-value>
1.17

$$$$
>  <alteration>
U7G U8C G9U U11C C12U C13A

>  <meas-value>
1.31

$$$$
>  <alteration>
U8A U10G C12U C13A

>  <meas-value>
1.32

$$$$
>  <alteration>
U7C G9C U10A U11G

>  <meas-value>
1.09

$$$$
>  <alteration>
U7C U8G G9A U10G U11A C12A

>  <meas-value>
1.47

$$$$
>  <alteration>
U7A U8C U10A

>  <meas-value>
1.06

$$$$
>  <alteration>
U7G U8A G9C C12G C13U

>  <meas-value>
1.06

$$$$
>  <alteration>
G9C U10G U11A C12G C13G

>  <meas-value>
1.24

$$$$
>  <alteration>
U7G U8A G9A U10C U11C C12G C13U

>  <meas-value>
1.08

$$$$
>  <alteration>
U7G U8A U10A U11A C12U C13A

>  <meas-value>
1.22

$$$$
>  <alteration>
U7C U8A G9C U10A U11G C12U C13A

>  <meas-value>
1.1

$$$$
>  <alteration>
U7C U8G U10A U11G C13G

>  <meas-value>
1.06

$$$$
